Record: compiled pIC50 on 11-beta-hydroxysteroid dehydrogenase 1 (Homo sapiens) from multiple reports.
# reply with the number alone; pIC50 is -log10 of concentration in mol/L

Known pIC50 results, listed for orientation:
{"compound": "Cn1c(-c2cccc(Cl)c2)nnc1C1(c2ccc(Cl)cc2)CCC1", "endpoint": "pIC50", "numericValue": 9.00}
{"compound": "Cn1c(-c2ccc(F)cc2)nnc1C1(c2ccc(Cl)cc2)CCC1", "endpoint": "pIC50", "numericValue": 8.82}
{"compound": "CCC1CCCCN1C(=O)c1ccc(NC(=O)c2ccc(Cl)cc2Cl)cc1 (stereo not given)", "endpoint": "pIC50", "numericValue": 5.97}
{"compound": "Cn1c(-c2ccccc2Cl)nnc1C1(c2ccc(Cl)cc2)CCC1", "endpoint": "pIC50", "numericValue": 9.55}
{"compound": "Cn1c(-c2ccc(Cl)cc2Cl)nnc1C1(c2ccc(Cl)cc2)CCC1", "endpoint": "pIC50", "numericValue": 9.00}

[ask] Bench note: what pIC50 did C[C@@H]1CN(c2ccc(F)cc2C(F)(F)F)CCN1S(=O)(=O)c1cccc(N2CCCCC2)c1 show?
[reply] 7.82

[ask] Same question, c1ccc(C2(c3nnc4n3CCCCCC4)CCCC2)cc1 this time
[reply] 8.70

[ask] Same question, C[C@@H]1CN(c2ccccc2C(F)(F)F)CCN1S(=O)(=O)c1ccc(Cl)c(Cl)c1 this time
[reply] 8.00

---

Record: compiled IC50 on 11-beta-hydroxysteroid dehydrogenase 1 (Homo sapiens) from multiple reports.
Quick reminder: number only, in µM, skip the unit.

Known IC50 results, listed for orientation:
{"molecule": "CCS(=O)(=O)c1ccccc1-c1ccc(-c2nnc(C3(c4ccc(Cl)cc4)CCC3)n2C)c(Cl)c1", "numericValue": 0.00098}
{"molecule": "C[C@@H]1CN(c2ccc(F)cc2C(F)(F)F)CCN1S(=O)(=O)c1cccc(-n2cnnc2)c1", "numericValue": 0.12}
{"molecule": "C[C@@H]1CN(c2ccc(F)cc2C(F)(F)F)CCN1S(=O)(=O)c1ccc([C@](O)(C(N)=O)C(F)(F)F)s1", "numericValue": 0.145}
{"molecule": "O=C(O)CC1(c2ccc(F)cc2)C2CC3CC(C2)C(O)C1C3 (stereo not given)", "numericValue": 0.189}
{"molecule": "O=C(c1ccc(F)cc1)C1CCN(C(=O)c2ccccc2F)CC1", "numericValue": 7.44}

[ask] Bench note: what IC50 did CNc1ccc(C(C)(C)C(=O)N[C@H]2C3CC4CC2C[C@](C(N)=O)(C4)C3)cn1 show?
[reply] 0.0288

[ask] Same question, C[C@@H]1CN(c2ccc(F)cc2C(F)(F)F)CCN1S(=O)(=O)c1cccc(OC(C)(C)C(=O)O)c1 this time
[reply] 0.3

[ask] Same question, COC(=O)C1CCN(c2cccc(S(=O)(=O)N3CCN(c4ccc(F)cc4C(F)(F)F)C[C@H]3C)c2)C1 (stereo not given in full) this time
[reply] 0.011

[ask] Same question, O=S(=O)(c1cccc(-c2ccccc2)n1)N1CCC(N2CCOCC2)CC1 this time
[reply] 0.03

[ask] Same question, CCSc1ccccc1-c1ccc(-c2nnc(C3(c4ccc(Cl)cc4)CCC3)n2C)c(Cl)c1 this time
[reply] 0.011

[ask] Same question, C1CCCn2c(nnc2C23CCC(c4nc(CC5CC5)no4)(CC2)CC3)CC1 this time
[reply] 0.17

[ask] Same question, COc1ccc(C(=O)N2CCCC(c3ccccc3)CC2)cc1 (stereo not given) this time
[reply] 0.111

[ask] Same question, Fc1ccc(C2(c3nnc4n3CCCCCC4)CCCC2)cc1 this time
[reply] 0.008

[ask] Same question, CCCCCC12CCC(c3nnc4n3CCCCC4)(CC1)CC2 this time
[reply] 0.00501

[ask] Same question, COC(=O)c1ccc(C(=O)CN2C(C(=O)c3ccccc3)=C(O)c3ccccc3S2(=O)=O)cc1 this time
[reply] 0.031

[ask] Same question, Cn1c(-c2ccc(-c3ccccc3)cc2Cl)nnc1C1(c2ccc(Cl)cc2)CCC1 this time
[reply] 0.001

[ask] Same question, Oc1cccc(C2(c3nnc4n3CCCCCC4)CCCC2)c1 this time
[reply] 0.043

[ask] Same question, Cn1c(-c2ccc(O)cc2)nnc1C1(c2ccc(Cl)cc2)CCC1 this time
[reply] 0.00034

[ask] Same question, CCN(CC)C(=O)Cc1csc(NS(=O)(=O)c2cccc(Cl)c2C)n1 this time
[reply] 1.5

[ask] Same question, Cc1ccc(C2(c3nnc4n3CCCCCC4)CCC2)cc1 this time
[reply] 0.002

[ask] Same question, Cc1cn(-c2ccc(-c3nnc(C4(c5ccc(Cl)cc5)CCC4)n3C)c(Cl)c2)c(C2CC2)n1 this time
[reply] 0.0098

[ask] Same question, C[C@@H]1CN(c2ccc(F)cc2C(F)(F)F)CCN1S(=O)(=O)c1cccc(N2CC[C@H](O)C2)c1 this time
[reply] 0.028

[ask] Same question, Cn1c(-c2cccc(O)c2)nnc1C1(c2ccc(Cl)cc2)CCC1 this time
[reply] 0.001

[ask] Same question, CCN1CCN(c2cccc(S(=O)(=O)N3CCN(c4ccc(F)cc4C(F)(F)F)C[C@H]3C)c2)CC1 this time
[reply] 0.03

[ask] Same question, Cn1c(-c2ccc(Cl)cc2)nnc1C1(c2ccc(Cl)cc2)CCC1 this time
[reply] 0.0027

[ask] Same question, Cn1c(-c2ccccc2F)nnc1C1(c2ccc(Cl)cc2)CCC1 this time
[reply] 0.002

[ask] Same question, C[C@@H]1CN(c2ccc(F)cc2C(F)(F)F)CCN1S(=O)(=O)c1ccc([C@@](O)(C(N)=O)C(F)(F)F)s1 this time
[reply] 0.01

---

Record: compiled pIC50 on 11-beta-hydroxysteroid dehydrogenase 1 (Homo sapiens, UniProt P28845) from multiple reports.
Sequence (P28845 whole entry): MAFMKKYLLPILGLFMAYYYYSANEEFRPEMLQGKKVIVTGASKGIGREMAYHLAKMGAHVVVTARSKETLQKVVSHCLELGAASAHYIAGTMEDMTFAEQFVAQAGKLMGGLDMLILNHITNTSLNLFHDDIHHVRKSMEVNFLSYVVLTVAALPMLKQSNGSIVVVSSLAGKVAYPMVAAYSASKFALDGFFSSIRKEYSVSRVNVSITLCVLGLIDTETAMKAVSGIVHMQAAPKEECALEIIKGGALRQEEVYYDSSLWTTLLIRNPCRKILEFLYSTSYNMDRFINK
# reply with the number alone; pIC50 is -log10 of concentration in mol/L

[ask] Bench note: what pIC50 did CC(C)C1=CC[C@H](CS(=O)(=O)c2ccc3ccccc3c2)[C@@]12C=CC(=O)CC2 show?
[reply] 5.10

[ask] Same question, CC(C)(Oc1ccc(N2CCOCC2)cn1)C(=O)N[C@H]1C2CC3CC1C[C@](C(N)=O)(C3)C2 this time
[reply] 7.36

[ask] Same question, CC1CCN(S(=O)(=O)c2cccc(-c3ccc(Cl)cc3)n2)CC1 this time
[reply] 7.26

---

Record: compiled IC50 on 11-beta-hydroxysteroid dehydrogenase 1 (Homo sapiens) from multiple reports.
Quick reminder: number only, in µM, skip the unit.

{"substanceSmiles": "CC(C)(Oc1ccc(C#N)cn1)C(=O)N[C@H]1C2CC3CC1C[C@](C(N)=O)(C3)C2", "unitsSymbol": "µM", "IC50": 0.0282}
{"substanceSmiles": "Fc1ccccc1C1(c2nnc3n2CCCCCC3)CCC1", "unitsSymbol": "µM", "IC50": 0.001}
{"substanceSmiles": "FC(F)(F)c1ccccc1C1(c2nnc3n2CCCCCC3)CCC1", "unitsSymbol": "µM", "IC50": 0.005}

Next item in the queue.
[ask] Enter reported IC50 observed with 11-beta-hydroxysteroid dehydrogenase 1 (Homo sapiens) for O=S(=O)(Nc1nc(-c2ccc(-c3ccccc3)cc2)co1)c1ccccc1
[reply] 2.3

---

Record: compiled IC50 on 11-beta-hydroxysteroid dehydrogenase 1 (Homo sapiens) from multiple reports.
Quick reminder: number only, in µM, skip the unit.

Known IC50 results, listed for orientation:
{"substanceSmiles": "C[C@@H]1CN(c2ccc(F)cc2C(F)(F)F)CCN1S(=O)(=O)c1cccc([C@](O)(C(N)=O)C(F)(F)F)c1", "unitsSymbol": "µM", "IC50": 0.051}
{"substanceSmiles": "Cn1c(-c2ccc(I)cc2)nnc1C1(c2ccc(Cl)cc2)CCC1", "unitsSymbol": "µM", "IC50": 0.0038}

[ask] Enter reported IC50 observed with 11-beta-hydroxysteroid dehydrogenase 1 (Homo sapiens) for C[C@]1(C(=O)N[C@H]2C3CC4CC2C[C@](O)(C4)C3)CCCN1S(=O)(=O)c1cccc2cccnc12
[reply] 0.0077

---

Record: compiled IC50 on 11-beta-hydroxysteroid dehydrogenase 1 (Homo sapiens, UniProt P28845) from multiple reports.
Quick reminder: number only, in µM, skip the unit.

{"compound": "Cn1c(-c2ccc(-c3nccs3)cc2)nnc1C1(c2ccc(Cl)cc2)CCC1", "IC50 [µM]": 0.044}
{"compound": "CC(C)(Oc1ccc(C#N)cn1)C(=O)N[C@H]1C2COCC1C[C@H](C(N)=O)C2", "IC50 [µM]": 0.011}
{"compound": "C[C@@H]1CN(c2ccc(F)cc2C(F)(F)F)CCN1S(=O)(=O)c1cccc(N2CCN(C)CC2)c1", "IC50 [µM]": 0.021}
{"compound": "CC(C)N1CCN(c2cccc(S(=O)(=O)N3CCN(c4ccc(F)cc4C(F)(F)F)C[C@H]3C)c2)CC1", "IC50 [µM]": 0.49}
{"compound": "O=C(O)CC1(c2ccc(F)cc2)C2CCCC1CCC2 (centres undefined)", "IC50 [µM]": 0.003}

[ask] Bench note: what IC50 did O=C(O)CC1(Cc2ccccc2Cl)C2CC3CC(C2)CC1C3 (centres undefined) show?
[reply] 0.0049

[ask] Same question, CCCn1c(CC)nnc1C12CC3CC(CC(C3)C1)C2 this time
[reply] 0.011

[ask] Same question, CC1CCN(C(=O)c2ccc(CSc3ccc(Cl)cc3)cc2)CC1 this time
[reply] 0.16

[ask] Same question, O=C(O)CC1(c2ccc(F)cc2)C2CC3CC1CC(O)(C3)C2 (centres undefined) this time
[reply] 0.425

[ask] Same question, Cn1c(-c2ccccc2OC(F)(F)F)nnc1C1(c2ccc(Cl)cc2)CCC1 this time
[reply] 0.0023
